- Tested on: bluegrass (annual bluegrass, Poa annua)
- Procedure Text: Test D controlled growth environment herbicide test, pre- and postemergence
- Type: in vivo
- Measurement Setup: Preemergence, 125 g ai/ha; scale 0 to 100 (0 no effect, 100 complete control)
Endpoint Name: Plant response rating, Bluegrass

Recorded results for 3 compounds are shown here.
Compound: Cc1nn(C)c(=O)c(-c2c(C)sc3c(C)cc(Cl)cc23)c1O [Compound 35]
Plant response rating, Bluegrass: 35
//
Compound: Cc1ccc2ccccc2c1-c1c(OC(=O)OC(C)C)c(C)nn(C)c1=O [Compound 72]
Plant response rating, Bluegrass: 25
//
Compound: Cc1ccc2sc(C)c(-c3c(OC(=O)OC(C)C)c(C)nn(C)c3=O)c2c1 [Compound 66]
Plant response rating, Bluegrass: 25

Each compound below has a reported value. Please supply its Plant response rating, Bluegrass.
1. COC(=O)Oc1c(C)nn(C)c(=O)c1-c1c(C)sc2ccc(C)cc12 [Compound 80]
2. Cc1nn(C)c(=O)c(-c2ccc(F)c3ccccc23)c1O [Compound 41]
3. CCc1sc2ccc(C)cc2c1-c1c(O)c(C)nn(C)c1=O [Compound 47]
4. CCCC(=O)Oc1c(C)nn(C)c(=O)c1-c1c(C)sc2ccc(C)cc12 [Compound 105]
5. CC(=O)Oc1c(C)nn(C)c(=O)c1-c1c(C)sc2ccc(Cl)cc12 [Compound 108]

Output:
[75, 80, 20, 60, 35]

* * *

- Test system: bromegrass, downy (downy bromegrass, Bromus tectorum)
- Procedure Text: Test D controlled growth environment herbicide test, pre- and postemergence
- Format: in vivo
- Measurement Setup: Preemergence, 31 g ai/ha
Endpoint Name: Plant response rating (scale of 0 to 100), Bromegrass, Downy
Answers are plain numbers.

Recorded results for 5 compounds are shown here.
Chemical String: Cn1nc(Br)c(O)c(-c2cccc3ccccc23)c1=O
Data Value: 15
//
Chemical String: Cc1cc(C)c2sc(C)c(-c3c(O)c(C)nn(C)c3=O)c2c1
Data Value: 10
//
Chemical String: Cc1ccc2sc(C)c(-c3c(OC(=O)OC(C)C)c(C)nn(C)c3=O)c2c1
Data Value: 15
//
Chemical String: Cc1ccc2sc(Br)c(-c3c(O)c(C)nn(C)c3=O)c2c1
Data Value: 35
//
Chemical String: Cc1nn(C)c(=O)c(-c2c(C)sc3ccc(Br)cc23)c1O
Data Value: 0

# ---- query compound ----
Task: Record request: Plant response rating (scale of 0 to 100), Bromegrass, Downy value, item `Cc1cc2ccccc2c(-c2c(O)c(C)nn(C)c2=O)c1C`
Output: 0

* * *

- Test system: nutsedge, yellow (yellow nutsedge, Cyperus esculentus)
- Procedure Text: Test C greenhouse herbicide test, pre- and postemergence
- Type: in vivo
- Measurement Setup: Postemergence, 31 g ai/ha; 0 to 100 scale (0 no effect, 100 complete control)
Provide the reported Nutsedge, Yellow plant response rating of each item.
Numbers only.

Recorded results for 2 compounds are shown here.
Chemical String: Cc1nn(C)c(=O)c(-c2c(C)sc3ccc(Br)cc23)c1O
Test System: nutsedge, yellow (yellow nutsedge, Cyperus esculentus)
Nutsedge, Yellow plant response rating: 35
//
Chemical String: CCc1sc2ccc(C)cc2c1-c1c(O)c(C)nn(C)c1=O
Test System: nutsedge, yellow (yellow nutsedge, Cyperus esculentus)
Nutsedge, Yellow plant response rating: 40

Each compound below has a reported value. Please supply its Nutsedge, Yellow plant response rating.
1. Cc1nn(C)c(=O)c(-c2cccc3ccccc23)c1O
2. Cn1nc(Br)c(O)c(-c2cccc3ccccc23)c1=O

Output:
1: 5; 2: 45
